Where these numbers come from: PubChem BioAssay

- measurement_notes: basal HepG2 mitochondrial membrane potential changes, profiling panel, cell-based, JC-1 fluorescence, 24 h, 100 nL compound (AID 1167); further: test concentration not given here
- run_parameters: higher = more signal
Outcome label depends on z-score relative to -0.2: at/above gives 1, below gives -1.

IN: I'd appreciate it if you could say whether `CN1C(=O)[C@]2(Cc3ccccc3)N=C(c3ccc(OCCCO)cc3)O[C@@H]2c2ccccc21` has z-score at least equal to -0.2.
OUT: 1

IN: Thanks! And COc1ccc(C(O)C2C=CC3C(=O)NC(=O)C3N2Nc2ccccn2)cc1 (stereo not drawn) ?
OUT: -1

IN: Thanks! And `CN(C)CCCC[C@@H]1NC(=O)[C@H]2C[C@@H](C(=O)NCCCCCNC(=O)CS)[C@@H](c3cccc(OCCO)c3)N2C1=O` ?
OUT: -1

IN: Thanks! And `COC(=O)[C@@]1(Cc2ccc(OC)cc2)[C@H]2c3cc(C(=O)N4CCCC4)n(Cc4ccsc4Br)c3C[C@H]2CN1C(=O)c1ccccc1` ?
OUT: 1

IN: Thanks! And `C[N+](C)(C)CCCC[C@@H]1NC(=O)[C@@H]2C[C@H](C(=O)NCCCCCN)[C@H](c3cccc(OCCO)c3)N2C1=O` ?
OUT: 1

IN: Thanks! And `C=CC[C@]1(C(=O)N2CCCCC2)N=C(c2ccc(OCCCO)cc2)O[C@H]1c1ccccc1` ?
OUT: 1

IN: Thanks! And `C#CCN(CC1=CCCCC1)[C@H](c1ccccc1Br)[C@@H](O)Cc1ccccc1` ?
OUT: -1

IN: Thanks! And C=CCC(OC(C)=O)[C@@H]1[C@@H](N(Cc2ccc(-c3ccccc3)cc2)C(=O)Cc2ccc(F)cc2)c2cc(OCCCO)ccc2N1C(=O)c1ccc(-c2ccccc2)cc1 (stereo partly drawn) ?
OUT: 1

====

- measurement_notes: P. aeruginosa biofilm formation inhibitors, primary screen, PAO1 strain, BacTiter-Glo luminescence, LB-PBS (AID 1144)
- run_parameters: 12 h, higher = more signal
Outcome label depends on z-score relative to -0.1: at/above gives 1, below gives 0.

IN: I'd appreciate it if you could say whether `COCCOC(=O)N1C(=O)[C@@]2(c3cc(C#CCCO)ccc31)[C@H](C(=O)N1CCc3cc(OC)c(OC)cc3C1)[C@H]1C(=O)O[C@H](c3ccccc3)[C@H](c3ccccc3)N1[C@@H]2c1ccc(O)cc1` has z-score at least equal to -0.1.
OUT: 0

IN: Thanks! And `COc1cc2c(cc1OC)CN(C(=O)[C@H]1[C@@H]3C(=O)O[C@@H](c4ccccc4)[C@@H](c4ccccc4)N3[C@@H](c3ccc(O)cc3)[C@]13C(=O)Nc1ccc(C#CC4=CCCCC4)cc13)CC2` ?
OUT: 0

IN: Thanks! And COc1cc2c(cc1O)C(C1CC1)N(Cc1cc3c(cc1Br)OCO3)CC2 (stereo not drawn) ?
OUT: 0

IN: Thanks! And `O=C(c1ccccc1)N1Cc2ccccc2[C@@H]2OC(c3ccc(OCCCO)cc3)=N[C@]2(Cc2ccccc2)C1=O` ?
OUT: 0

IN: Thanks! And `[N-]=[N+]=NCc1ccccc1[C@@H]1OC(c2ccc(OCCCO)cc2)=N[C@]1(Cc1ccccc1N=[N+]=[N-])C(=O)N1CCOCC1` ?
OUT: 1

IN: Thanks! And `COC(=O)[C@@]1(Cc2ccc(OC)cc2)[C@H]2c3cc(C(=O)N(C)C)n(Cc4cccc5ccccc45)c3C[C@H]2CN1C(=O)c1ccccc1` ?
OUT: 1

IN: Thanks! And `CC(C)C[C@@H]1NC(=O)[C@H]2C[C@@H](C(=O)NCCCCCCN)[C@@H](c3ccc(O)cc3)N2C1=O` ?
OUT: 1

IN: Thanks! And `C=CC[C@]12N=C(c3ccc(OCCCO)cc3)O[C@H]1c1ccccc1N(Cc1ccccc1)C2=O` ?
OUT: 1

IN: Thanks! And `CCOC(=O)[C@H]1C/C=C/C[C@H](C(=O)OCC)C(=O)O[C@H]2[C@@H](OC)O[C@H](CO)[C@@H](OC(=O)Nc3ccc(C#N)cc3)[C@@H]2OC1=O` ?
OUT: 0

IN: Thanks! And CCCCC(O)C1C=CC2C(=O)N(c3ccccc3)C(=O)C2N1Nc1ccccc1F (stereo not drawn) ?
OUT: 0

IN: Thanks! And `COCCCNC(=O)[C@@]1(Cc2ccccc2N=[N+]=[N-])N=C(c2ccc(OCCCO)cc2)O[C@H]1c1ccccc1N=[N+]=[N-]` ?
OUT: 0

IN: Thanks! And `CO[C@H]1O[C@H](CO)[C@@H](OC(=O)Nc2ccc(Br)cc2)[C@H](OC(=O)c2cc3ccccc3[nH]2)[C@H]1OC(=O)c1cc2ccccc2[nH]1` ?
OUT: 0

IN: Thanks! And `COCCOC(=O)N1C(=O)[C@@]2(c3cc(C#Cc4ccc(OC)cc4)ccc31)[C@H](c1ccccc1OCCO)N1[C@H](c3ccccc3)[C@H](c3ccccc3)OC(=O)[C@H]1[C@@H]2C(=O)N1CCN(c2ncccn2)CC1` ?
OUT: 0

====

- measurement_notes: binders of probe aHhip on microarray, primary screen, stem cell growth factor project, biochemical, small-molecule microarray, fluorescence 635/667 (AID 1087);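 further: score merges spot fluorescence at 667nm with spot signal to noise ratio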
- run_parameters: higher = more signal
Give measured composite z-score for each item. Keep answers brief.
// return just the number, without any unit appended

IN: What value of composite z-score has been reported for the following compound? `C=CCNC(=O)[C@H]1[C@@H]2C(=O)O[C@@H](c3ccccc3)[C@@H](c3ccccc3)N2[C@@H](c2ccc(O)cc2)[C@]12C(=O)N(C(=O)OCCOC)c1ccc(C#CCNC(N)=O)cc12`
OUT: 0.0722

IN: Thanks! And CC1(C)[C@@H]2CC(C(O)C3C=CC4C(=O)N(c5ccccc5)C(=O)C4N3Nc3ccccc3)=C[C@H]1C2 (some centres undefined) ?
OUT: 0.142

IN: Thanks! And CCOC(=O)[C@H]1CC=C2CC1C(=O)N1CCC[C@@H]1[C@@H]2O[Si](C)(C)C(C)(C)C (some centres undefined) ?
OUT: -0.0994

IN: Thanks! And `COc1ccc(CCN2C(=O)[C@@]3(Cc4ccccc42)c2ccccc2C(=O)N(Cc2ccccc2C(F)(F)F)[C@H]3c2ccc(CO)cc2)cc1` ?
OUT: -0.0994

IN: Thanks! And `CCOC(=O)C[C@H]1[C@H](OC(=O)Cc2ccc3c(c2)OCO3)[C@@H](NC(=O)c2ccc3ccccc3c2)c2cc(OCCCO)ccc2N1C(=O)c1ccccc1` ?
OUT: 0.0373

IN: Thanks! And `COc1ccc([Si](C)(C)[C@H]2[C@H](CCn3cc([C@H](O)c4ccccc4)nn3)O[C@@]3(C(=O)N(Cc4cccc(N5CCOC5=O)c4)c4ccccc43)[C@@H]2C)cc1` ?
OUT: 0.155

IN: Thanks! And CC(=O)n1cc(C(O)C2C=CC3C(=O)N(C)C(=O)C3N2Nc2ccccc2)c2ccccc21 (centres undefined) ?
OUT: -0.0196

IN: Thanks! And `COc1ccc([Si](C)(C)[C@H]2[C@H](CC(=O)N3Cc4ccccc4C[C@H]3CO)O[C@@]3(C(=O)N(Cc4ccc(N5CCC5=O)cc4)c4ccccc43)[C@@H]2C)cc1` ?
OUT: 0.115

IN: Thanks! And `C=CCOC(=O)[C@@H]1[C@H]2C(=O)O[C@H](c3ccccc3)[C@H](c3ccccc3)N2[C@H](c2ccc(OCCOC(=O)[C@@H]3C[C@@H]4C(=O)N5CCC[C@H]5C(=O)N4[C@@H]3c3ccc(O)cc3)cc2)[C@@]12C(=O)Nc1ccc(I)cc12` ?
OUT: -0.069

====

- tested_system: Torsin-1A-interacting protein 2 (Homo sapiens) (UniProt Q8NFQ8)
- Sequence (Q8NFQ8 whole entry, looked up): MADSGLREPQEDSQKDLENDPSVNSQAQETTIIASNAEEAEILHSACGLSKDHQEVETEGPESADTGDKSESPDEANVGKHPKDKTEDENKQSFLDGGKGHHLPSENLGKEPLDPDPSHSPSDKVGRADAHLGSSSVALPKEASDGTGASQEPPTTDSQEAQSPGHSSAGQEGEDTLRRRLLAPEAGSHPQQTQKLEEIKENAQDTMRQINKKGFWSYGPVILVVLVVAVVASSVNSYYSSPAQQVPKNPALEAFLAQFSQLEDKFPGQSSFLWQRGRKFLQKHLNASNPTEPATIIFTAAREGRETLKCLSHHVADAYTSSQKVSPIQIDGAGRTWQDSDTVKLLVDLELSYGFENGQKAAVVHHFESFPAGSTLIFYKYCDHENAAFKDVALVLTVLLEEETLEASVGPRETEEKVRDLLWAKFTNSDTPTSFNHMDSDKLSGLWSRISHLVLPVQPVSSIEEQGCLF
- measurement_notes: LULL1 binders on small-molecule microarray, primary screen, cell lysate, human LULL1 lysate, 635/667 nm fluorescence (AID 1092);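 further: probe is lysate of COS7 cells overexpressing human LULL1; score merges per-feature 667 nm fluorescence with signal-to-noise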
- run_parameters: hLULL1 lysate binding, 635 nm fluorescence, higher = more signal
Outcome label depends on composite z-score relative to 1: at/above gives T, below gives F.

IN: I'd appreciate it if you could say whether `O=C1c2ccccc2[C@](Cc2ccccc2I)(C(=O)NC2CC2)[C@H](c2ccc(CO)cc2)N1Cc1ccccc1` has composite z-score at least equal to 1.
OUT: T

IN: Thanks! And `COc1cc2c(cc1OC)CN(C(=O)[C@H]1[C@@H]3C(=O)O[C@@H](c4ccccc4)[C@@H](c4ccccc4)N3[C@@H](c3ccc(O)cc3)[C@]13C(=O)Nc1ccc(C#CCNC(N)=O)cc13)CC2` ?
OUT: F

IN: Thanks! And `Cc1ccc(S[C@]2(C(=O)NCC(F)(F)F)CC(=O)N(C(C)C)[C@@H]2c2ccc(CO)cc2I)cc1` ?
OUT: T

IN: Thanks! And `C=C(CCCC)C(=O)CC[C@H](OC(C)=O)c1cccc(OCCO)c1` ?
OUT: F

IN: Thanks! And CCN(CC)c1ccc(N2CC=CC34O[C@@H]5/C=C\CCCOC(=O)C5[C@H]3C(=O)N(CCO)[C@@H]4C2=O)cc1 (stereo partly drawn) ?
OUT: T

IN: Thanks! And CN1C(=O)C2C=CC(C(O)c3ccc(-c4ccccc4)s3)N(N(c3ccccc3)c3ccccc3)C2C1=O (stereo not drawn) ?
OUT: T

IN: Thanks! And `CCCC#C[Si](O[C@H](CC)c1cn([C@H](CO)Cc2ccccc2)nn1)(C(C)C)C(C)C` ?
OUT: T
